System: A2780S
Test: Antiproliferative activity in human tumor cell lines (A2780S)
Type: cell-based
Conditions: A2780S ovarian tumor cell line
Counter-ions that a name gives are not always drawn.
// values below are reported IC50

| compound | IC50 [µg/mL] |
| --- | --- |
| CN(C)c1cc(NC(=O)CN2CCCC2)c(O)c2c1CC1CC3[C@H](N(C)C)C(O)=C(C(N)=O)C(=O)[C@@]3(O)C(O)=C1C2=O (stereo partly shown) [Example 3, dihydrochloride] | 2.4 |
| CCCCCCCNCC(=O)Nc1cc(N(C)C)c2c(c1O)C(=O)C1=C(O)[C@]3(O)C(=O)C(C(N)=O)=C(O)[C@@H](N(C)C)C3CC1C2 (stereo partly shown) [Example 5, dihydrochloride] | 2.5 |
| CCCCCCNCC(=O)Nc1cc(N(C)C)c2c(c1O)C(=O)C1=C(O)[C@]3(O)C(=O)C(C(N)=O)=C(O)[C@@H](N(C)C)C3CC1C2 (stereo partly shown) [Example 4, dihydrochloride] | 2.3 |
| CCCN(CCC)c1cc(NC(=O)CN(C)C)c(O)c2c1CC1CC3[C@H](N(C)C)C(O)=C(C(N)=O)C(=O)[C@@]3(O)C(O)=C1C2=O (stereo partly shown) [Example 6] | 3.5 |
| CC(C)CN(CC(C)C)c1cc(NC(=O)CN(C)C)c(O)c2c1CC1CC3[C@H](N(C)C)C(O)=C(C(N)=O)C(=O)[C@@]3(O)C(O)=C1C2=O (stereo partly shown) [Example 8] | 2.5 |
| CCCCN(CC1CC1)c1cc(NC(=O)CN(C)C)c(O)c2c1CC1CC3C(N(C)C)C(O)=C(C(N)=O)C(=O)C3(O)C(O)=C1C2=O (stereo not shown) [Example 7] | 3 |
| CN(C)CC(=O)Nc1cc(N(C)C)c2c(c1O)C(=O)C1=C(O)[C@]3(O)C(=O)C(C(N)=O)=C(O)[C@@H](N(C)C)C3CC1C2 (stereo partly shown) [Example 2, dihydrochloride] | 6.5 |

* * *

Test system: SW620
Test: Antiproliferative activity in human tumor cell lines (SW620)
Assay type: cell-based
Conditions: SW-620, SW620 colon tumor cell line
Structures can show the parent of a compound that is named as a salt.

| compound | IC50 / µg/mL |
| --- | --- |
| CCCCN(CC1CC1)c1cc(NC(=O)CN(C)C)c(O)c2c1CC1CC3C(N(C)C)C(O)=C(C(N)=O)C(=O)C3(O)C(O)=C1C2=O (stereo not shown) | 3.5 |
| CN(C)CC(=O)Nc1cc(N(C)C)c2c(c1O)C(=O)C1=C(O)[C@]3(O)C(=O)C(C(N)=O)=C(O)[C@@H](N(C)C)C3CC1C2 (stereo partly shown) [Example 2, dihydrochloride] | 5.6 |
| CCCCCCCNCC(=O)Nc1cc(N(C)C)c2c(c1O)C(=O)C1=C(O)[C@]3(O)C(=O)C(C(N)=O)=C(O)[C@@H](N(C)C)C3CC1C2 (stereo partly shown) [Example 5, dihydrochloride] | 2.4 |
| CN(C)c1cc(NC(=O)CN2CCCC2)c(O)c2c1CC1CC3[C@H](N(C)C)C(O)=C(C(N)=O)C(=O)[C@@]3(O)C(O)=C1C2=O (stereo partly shown) [Example 3, dihydrochloride] | 2.3 |
| CC(C)CN(CC(C)C)c1cc(NC(=O)CN(C)C)c(O)c2c1CC1CC3[C@H](N(C)C)C(O)=C(C(N)=O)C(=O)[C@@]3(O)C(O)=C1C2=O (stereo partly shown) | 1.5 |
| CCCN(CCC)c1cc(NC(=O)CN(C)C)c(O)c2c1CC1CC3[C@H](N(C)C)C(O)=C(C(N)=O)C(=O)[C@@]3(O)C(O)=C1C2=O (stereo partly shown) | 3 |
| CCCCCCNCC(=O)Nc1cc(N(C)C)c2c(c1O)C(=O)C1=C(O)[C@]3(O)C(=O)C(C(N)=O)=C(O)[C@@H](N(C)C)C3CC1C2 (stereo partly shown) [Example 4, dihydrochloride] | 2.7 |

* * *

Tested on: Human Tumor cell lines
Assay: Antiproliferative activity in panel of human tumor cell lines (PROTOCOL 1 and PROTOCOL 2)
Format: cell-based
Conditions: Homo sapiens; average over the tumor cell lines of Table 3
Counter-ions that a name gives are not always drawn.

| molecule | IC50, µg/mL |
| --- | --- |
| CCCN(CCC)c1cc(NC(=O)CN(C)C)c(O)c2c1CC1CC3[C@H](N(C)C)C(O)=C(C(N)=O)C(=O)[C@@]3(O)C(O)=C1C2=O (stereo partly shown) | 5.1 |
| CN(C)c1cc(NC(=O)CN2CCCC2)c(O)c2c1CC1CC3[C@H](N(C)C)C(O)=C(C(N)=O)C(=O)[C@@]3(O)C(O)=C1C2=O (stereo partly shown) [Example 3, dihydrochloride] | 2.4 |
| CCCCN(CC1CC1)c1cc(NC(=O)CN(C)C)c(O)c2c1CC1CC3C(N(C)C)C(O)=C(C(N)=O)C(=O)C3(O)C(O)=C1C2=O (stereo not shown) | 5.1 |
| CCCCCCCNCC(=O)Nc1cc(N(C)C)c2c(c1O)C(=O)C1=C(O)[C@]3(O)C(=O)C(C(N)=O)=C(O)[C@@H](N(C)C)C3CC1C2 (stereo partly shown) [Example 5, dihydrochloride] | 2.4 |
| CN(C)CC(=O)Nc1cc(N(C)C)c2c(c1O)C(=O)C1=C(O)[C@]3(O)C(=O)C(C(N)=O)=C(O)[C@@H](N(C)C)C3CC1C2 (stereo partly shown) [Example 2, dihydrochloride] | 5.8 |
| CCCCCCNCC(=O)Nc1cc(N(C)C)c2c(c1O)C(=O)C1=C(O)[C@]3(O)C(=O)C(C(N)=O)=C(O)[C@@H](N(C)C)C3CC1C2 (stereo partly shown) [Example 4, dihydrochloride] | 2.3 |
| CC(C)CN(CC(C)C)c1cc(NC(=O)CN(C)C)c(O)c2c1CC1CC3[C@H](N(C)C)C(O)=C(C(N)=O)C(=O)[C@@]3(O)C(O)=C1C2=O (stereo partly shown) | 4 |
